TESTED SYSTEM: Solute carrier family 12 member 5 (Homo sapiens)
Sequence (Q9H2X9 whole entry): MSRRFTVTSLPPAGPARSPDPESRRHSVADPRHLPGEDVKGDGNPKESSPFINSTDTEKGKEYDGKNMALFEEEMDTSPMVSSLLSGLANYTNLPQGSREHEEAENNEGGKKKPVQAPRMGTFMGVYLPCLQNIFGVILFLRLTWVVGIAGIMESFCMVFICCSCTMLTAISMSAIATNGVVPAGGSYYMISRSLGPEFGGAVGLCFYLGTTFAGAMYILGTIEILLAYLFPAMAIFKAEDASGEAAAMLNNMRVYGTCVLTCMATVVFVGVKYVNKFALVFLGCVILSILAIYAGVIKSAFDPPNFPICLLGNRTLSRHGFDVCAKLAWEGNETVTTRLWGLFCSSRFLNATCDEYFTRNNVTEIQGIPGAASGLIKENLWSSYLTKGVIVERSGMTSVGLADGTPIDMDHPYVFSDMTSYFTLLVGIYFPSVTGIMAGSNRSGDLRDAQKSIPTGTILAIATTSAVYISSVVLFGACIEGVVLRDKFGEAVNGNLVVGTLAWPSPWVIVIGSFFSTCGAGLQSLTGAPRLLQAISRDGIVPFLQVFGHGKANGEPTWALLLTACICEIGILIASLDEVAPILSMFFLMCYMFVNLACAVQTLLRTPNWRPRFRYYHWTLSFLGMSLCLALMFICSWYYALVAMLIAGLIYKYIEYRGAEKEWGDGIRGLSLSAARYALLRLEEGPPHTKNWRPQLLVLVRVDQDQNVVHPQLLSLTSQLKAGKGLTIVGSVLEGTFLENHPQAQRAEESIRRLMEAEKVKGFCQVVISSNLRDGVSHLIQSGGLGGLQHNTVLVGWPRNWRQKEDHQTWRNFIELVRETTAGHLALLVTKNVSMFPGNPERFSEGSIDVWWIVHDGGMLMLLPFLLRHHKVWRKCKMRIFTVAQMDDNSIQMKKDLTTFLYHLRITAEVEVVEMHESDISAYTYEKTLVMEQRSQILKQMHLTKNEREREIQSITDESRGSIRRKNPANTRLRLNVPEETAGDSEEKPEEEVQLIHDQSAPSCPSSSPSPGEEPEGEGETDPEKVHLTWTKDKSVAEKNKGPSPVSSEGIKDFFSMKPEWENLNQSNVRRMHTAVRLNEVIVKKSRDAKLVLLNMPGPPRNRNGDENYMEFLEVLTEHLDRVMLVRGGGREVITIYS
TEST DETAILS: concentration-response of KCC2 transport modulators – cell-based, HEK293 KCC2, FluoZin-2 fluorescence, dose response (AID 1736)
pEC50: −log10 of the molar value.
# if value of pEC50 reaches 5, tag Met; if it stays below, tag Not met

CHEMICAL SMILES: Cc1onc(-c2ccccc2Cl)c1C(=O)NC(=S)Nc1ccc(C(C)C)cc1
CLASS NAME: Met
--
CHEMICAL SMILES: CC(=NNC(=O)c1ccc(Cl)c(Cl)c1)c1ccc(Br)s1
CLASS NAME: Met
--
CHEMICAL SMILES: O=C(Cn1nnc2c(cnn2-c2ccccc2)c1=O)N1CCN(c2ccccc2F)CC1
CLASS NAME: Not met

All values here come from BindingDB's records for doi:10.7270/Q2Q52N1X.
